Ref: paper PMC7571145

Test system: MCF-7 cells
PROCEDURE_DETAILS: MTT cytotoxicity assay on MCF-7 cells
Assay type: cell-based
EXPERIMENTAL_CONTEXT: 2.5 µM, 72 h, mean±SD, untreated control about 100
TEST_READOUT: primary growth inhibitory screen, cell viability, MCF-7

Record excerpt, results attached:
>  <COMPOUND>
Cc1ccc(-n2cc3c(=O)oc4cc5c(cc4c3n2)CCCC5)cc1 [Compound 19b]

>  <SYSTEM_NAME>
MCF-7 cells

>  <TEST_RESULT>
≥ 100±4.8

$$$$
>  <COMPOUND>
CC(=O)O[C@H]1CC[C@H]2[C@@H]3CCc4cc(O)c(-c5nn(-c6ccccc6)cc5C=O)cc4[C@H]3CC[C@]12C [Compound 7a]

>  <SYSTEM_NAME>
MCF-7 cells

>  <TEST_RESULT>
98.6±5.2

$$$$
>  <COMPOUND>
CC(=O)c1cc2c(cc1O)CC[C@@H]1[C@@H]2CC[C@]2(C)[C@@H](O)CC[C@@H]12 [Compound 5]

>  <SYSTEM_NAME>
MCF-7 cells

>  <TEST_RESULT>
87.5

$$$$
>  <COMPOUND>
C[C@]12CC[C@@H]3c4cc(-c5nn(-c6ccc(Cl)cc6)cc5CO)c(O)cc4CC[C@H]3[C@@H]1CC[C@@H]2O [Compound 11c]

>  <SYSTEM_NAME>
MCF-7 cells

>  <TEST_RESULT>
≥ 100±0.7

$$$$

Given the compound OCc1cn(-c2ccc(Cl)cc2)nc1-c1cc2c(cc1O)CCCC2 [Compound 18c] , what is its reported primary growth inhibitory screen, cell viability, MCF-7?
≥ 100±4.7

// query: C[C@]12CC[C@@H]3c4cc(-c5nn(-c6ccccc6)cc5CO)c(O)cc4CC[C@H]3[C@@H]1CC[C@@H]2O [Compound 11a]
93.4±3.7

// query: CC(=O)O[C@H]1CC[C@H]2[C@@H]3CCc4cc5oc(=O)c6cn(-c7ccc(Cl)cc7)nc6c5cc4[C@H]3CC[C@]12C [Compound 9c]
91.1±3.1

* * *

Measured primary growth inhibitory screen, cell viability, MCF-7, listed per entry for reference.
Test system: MCF-7 cells
PROCEDURE_DETAILS: MTT cytotoxicity assay on MCF-7 cells
Format: cell-based
EXPERIMENTAL_CONTEXT: 2.5 µM, 72 h, mean±SD, untreated control about 100
Procedure: Cytotoxicity screens were performed to assess the in vitro anticancer activity of the synthesized A-ring-linked 2-pyrazoles of estradiol, the pyrazolocoumarin-estradiol hybrids, and their structurally simplified non-steroidal analogs on various cancerous cell lines such as MCF-7, PC-3, DU145, and HeLa and on non-cancerous MRC-5 fibroblasts. The 2-acetyl-phenol starting materials (4, 5, and 15) were also included for comparison. All compounds were applied in 2.5 µM concentration for 72 h. […]

Record excerpt, results attached:
>  <COMPOUND>
O=c1oc2cc3c(cc2c2nn(-c4ccccc4)cc12)CCCC3 [Compound 19a]

>  <TEST_RESULT>
≥ 100±3.9

$$$$
>  <COMPOUND>
Cc1ccc(-n2cc(C=O)c(-c3cc4c(cc3O)CC[C@@H]3[C@@H]4CC[C@]4(C)[C@@H](O)CC[C@@H]34)n2)cc1

>  <TEST_RESULT>
≥ 100±8.2

$$$$

# query: primary growth inhibitory screen, cell viability, MCF-7 | item CC(=O)O[C@H]1CC[C@H]2[C@@H]3CCc4cc(O)c(-c5nn(-c6ccc(C)cc6)cc5C=O)cc4[C@H]3CC[C@]12C | system: MCF-7 cells
≥ 100±4.3

* * *

System: MCF-7 cells
PROCEDURE_DETAILS: MTT cytotoxicity assay on MCF-7 cells
Type: cell-based
EXPERIMENTAL_CONTEXT: 2.5 µM, 72 h, mean±SD, untreated control about 100
Measured primary growth inhibitory screen, cell viability, MCF-7, listed per entry for reference.

Record excerpt, results attached:
>  <MOLECULE>
CC(=O)O[C@H]1CC[C@H]2[C@@H]3CCc4cc5oc(=O)c6cn(-c7ccc(C)cc7)nc6c5cc4[C@H]3CC[C@]12C

>  <TEST_RESULT>
≥ 100±0.8

$$$$
>  <MOLECULE>
CC(=O)O[C@H]1CC[C@H]2[C@@H]3CCc4cc5oc(=O)c6cn(-c7ccccc7)nc6c5cc4[C@H]3CC[C@]12C

>  <TEST_RESULT>
≥ 100±2.4

$$$$
>  <MOLECULE>
O=Cc1cn(-c2ccccc2)nc1-c1cc2c(cc1O)CCCC2 [Compound 17a]

>  <TEST_RESULT>
≥ 100±2.3

$$$$

Now consider the entry below.
Given the molecule O=c1oc2cc3c(cc2c2nn(-c4ccc(Cl)cc4)cc12)CCCC3 [Compound 19c] , what is its reported primary growth inhibitory screen, cell viability, MCF-7?
≥ 100±3.8
